Tested on: Fer kinase domain
assay comment: pTyr-Var library bacterial peptide display kinase screen (enrichment scores);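 note: log2 fold change in enrichment of variant over reference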
Type: biochemical, mouse
test parameters: sheet "Fer"; value of the variant peptide against its reference peptide in the pTyr-Var library screen with Fer
measured endpoint: Screen
Please give only the number in your answer, with no unit.

entry sequence	subject of test	Screen
FAELMYTGFWH [ASS1_Y322_V321M]	Fer kinase domain	-0.4066
PEPHIYAVADV [MYO9A_Y216_L211P]	Fer kinase domain	0.8588
EACPSYSHVVL [CHST6_Y168_R166P]	Fer kinase domain	2.885
LADKPYTFEFF [FXN_Y118_D122Y_YF]	Fer kinase domain	-0.3661
LASLIYNFILF [AQP6_Y231_V234I]	Fer kinase domain	0.3008
GEEIKYMLWLL [OTC_Y55_S60L]	Fer kinase domain	1.219
FISLIYTNFEV [GSTP1_Y109_A114V_YF]	Fer kinase domain	1.457
MSRNLYSGDCF [DDR2_Y736_Y740C_YF]	Fer kinase domain	-0.7796

# query: Screen | item TESALYGCTIL [MAP3K21_Y724_V728I] | system: Fer kinase domain
-0.01841

Item: NIEPIYLNMLL [ATR_Y317_V316I] Test system: Fer kinase domain Read-out: Screen Value: ?
0.3194

Screen of NPIGLYSAEIL [LDB3_Y202_T206I] on Fer kinase domain?
1.652

Request - read-out Screen | tested on Fer kinase domain | sequence SVETPYVSVTF [NDRG2_Y47_G48V]
-1.711

Recorded Screen for DSFATYFRWVL [H2BW1_Y84_R87W] with Fer kinase domain, please?
2.515

----------
subject of test: c-Abl kinase domain (Mus musculus)
Sequence (P00520 242-493 limits assumed): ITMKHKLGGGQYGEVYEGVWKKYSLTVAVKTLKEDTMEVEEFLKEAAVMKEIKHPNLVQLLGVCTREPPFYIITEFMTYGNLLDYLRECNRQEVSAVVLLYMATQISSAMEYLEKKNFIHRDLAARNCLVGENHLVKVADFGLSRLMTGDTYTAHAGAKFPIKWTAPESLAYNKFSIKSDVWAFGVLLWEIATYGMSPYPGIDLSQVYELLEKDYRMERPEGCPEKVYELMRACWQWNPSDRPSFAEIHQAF
assay comment: pTyr-Var library bacterial peptide display kinase screen (enrichment scores);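 note: log2 fold change in enrichment of variant over reference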
Format: biochemical
test parameters: sheet "Abl"; effect of variant peptide relative to its reference peptide in pTyr-Var library screen (enrichment)
Screen vs -0.2: at or above is 1 (yes), below is 0 (no).

The following sequences have reported results that may help.
entry sequence	class name
KLSHLYQDHMQ [WNT5A_Y86_C83S]	0 (no)
DNEAIYDICRC [TUBA4A_Y210_R215C]	0 (no)
PTKNDYWAMPA [WWOX_Y287_L291P]	0 (no)
EAAFVYVISSA [WNT4_Y113_A114V]	1 (yes)
PLDVEYFTLQI [TP53_Y327_G325V]	0 (no)
ADDSFYTVRSA [ZAP70_Y493_A495V_YF]	0 (no)
PLDGEYVTLQI [TP53_Y327_F328V]	0 (no)
WAMPAYNRSKL [WWOX_Y293_L291P]	1 (yes)
FFLGAYDRFLP [SLC22A5_Y486_V481F_YF]	0 (no)
SVTCTYPPALN [TP53_Y126_S127P]	1 (yes)

Screen >= -0.2 for KAWTIYHPEDS [ZBP1_Y165_R166H] ?
1 (yes)

For this sequence, is measured Screen -0.2 or higher? IVRSLYEDVED [VHL_Y185_L188V]
1 (yes)

// inclusive: Screen at least -0.2? input: TVLEPYTDPFF [ZC3H18_Y367_A368T_YF]
1 (yes)

----------
Each record here notes measured Screen.
Test system: EPHB1 kinase domain
assay comment: pTyr-Var library bacterial peptide display kinase screen (enrichment scores);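 note: log2 fold change in enrichment of variant over reference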
Assay type: biochemical, human
test parameters: sheet EPHB1; effect of the variant peptide relative to its reference peptide in the pTyr-Var library screen (enrichment scores)

Solved cases below.
entry sequence	subject of test	measured endpoint	endpoint value
PIFLFYLMDLS [ITGB2_Y131_D128Y_YF]	EPHB1 kinase domain	Screen	1.841
LASLIYNFILF [AQP6_Y231_V234I]	EPHB1 kinase domain	Screen	0.3462
ANAFIYDVQLP [L1CAM_Y420_V421D_YF]	EPHB1 kinase domain	Screen	1.352
NPIGLYSAEIL [LDB3_Y202_T206I]	EPHB1 kinase domain	Screen	0.7886
RAILLYEFVGK [NATD1_Y45_V42I_YF]	EPHB1 kinase domain	Screen	1.082

Query: Screen; subject: LIFVSYDDWDF [GRIN2A_Y281_S278F_YF]
0.6915

Please give the measured Screen for this sequence: SPPILYSFFLN [FCRL6_Y239_D244N_YF]
0.08597

Form field: reported Screen of LTERDYSFVTT [ACTG2_Y199_G198D]
1.497

Could you share which Screen value was measured for EAVSIYQFFGQ [CBLC_Y402_H405Y_YF] ?
2.283

Quick one: Screen of NTILLYHIMAW [GPR143_Y157_S152N] ?
0.2317

----------
Tested on: EPHB1 kinase domain
assay comment: pTyr-Var library bacterial peptide display kinase screen (enrichment scores);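 note: log2 fold change in enrichment of variant over reference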
Type: biochemical, human
test parameters: sheet EPHB1; effect of the variant peptide relative to its reference peptide in the pTyr-Var library screen (enrichment scores)
// assign rule met if Screen falls strictly below -0.5, else rule not met (ties count as rule not met)

entry sequence	class name
LGQRIYQFIRS [DYRK1B_Y271_Q275R_YF]	rule not met
QNTGDYCDLFG [PTPN11_Y62_Y63C_YF]	rule met

Say whether its Screen is strictly beneath -0.5. Entry: FAELMYTGFWH [ASS1_Y322_V321M]
rule not met

----------
subject of test: c-Src kinase domain (Homo sapiens, UniProt P12931)
assay comment: pTyr-Var library bacterial peptide display kinase screen (enrichment scores);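 note: log2 fold change in enrichment of variant over reference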
Format: biochemical
test parameters: sheet "Src"; variant peptide versus its reference peptide in the pTyr-Var library screen
measured endpoint: Screen

Worked cases, Screen given:
entry sequence	Screen
GGSDCYGSLRP [MYLK_Y846_R845C]	2.609
GADAIYDHVNE [UQCR10_Y44_I47V]	-0.3881
PLDVEYFTLQI [TP53_Y327_G325V]	-0.5097

# evaluate next
Looking for the measured Screen of PKSLFYLLLKP [TRPC6_Y775_L780P] , can you help?
-1.15

----------
Tested on: EPHB2 kinase domain
assay comment: pTyr-Var library bacterial peptide display kinase screen (enrichment scores);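 note: log2 fold change in enrichment of variant over reference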
Type: biochemical, human
test parameters: sheet EPHB2; effect of variant peptide relative to its reference peptide in the pTyr-Var library screen (enrichment scores)
I'd appreciate it if you marked entries true when Screen is lower than 0.6 and false when it is not.

See these solved cases before continuing.
entry sequence	class name
MSRNLYSGDCF [DDR2_Y736_Y740C_YF]	true
LGQRIYQFIRS [DYRK1B_Y271_Q275R_YF]	true
LRWREYQRQDF [PRKRIP1_Y90_R87W_YF]	false

Consider now this further sequence.
Please check: Screen for QNTGDYCDLFG [PTPN11_Y62_Y63C_YF] , strictly under 0.6 or not?
true

----------
Listed next: entries and their corresponding Screen.
subject of test: c-Src kinase domain (Homo sapiens)
assay comment: pTyr-Var library bacterial peptide display kinase screen (enrichment scores);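 note: log2 fold change in enrichment of variant over reference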
Assay type: biochemical
test parameters: sheet "Src"; variant peptide versus its reference peptide in the pTyr-Var library screen
Form rule: numeric answer, no unit written next to it.

Solved entries (count: 4):
entry sequence	Screen
NHFKRYNLCAE [PTEN_Y68_I67R_YF]	-2.549
DNEAIYDICRC [TUBA4A_Y210_R215C]	0.192
VEEDTYTMPST [PTK2_Y407_D402V]	0.7074
PGDGEYFTLQI [TP53_Y327_L323G]	0.07795

# get_value(readout= Screen, system= c-Src kinase domain (Homo sapiens)) for HGEAFYSEVKA [PAK5_Y182_P187A_YF]
0.7945

Lab note: need Screen for EAAFVYVISSA [WNT4_Y113_A114V] on c-Src kinase domain (Homo sapiens), anyone have it?
-2.147

Screen of RAILLYEFVGK [NATD1_Y45_V42I_YF] on c-Src kinase domain (Homo sapiens)?
1.103

Request body: readout Screen, system c-Src kinase domain (Homo sapiens), query PLQKIYNFNVL [SLC4A1_Y553_T552I_YF] . Return the value.
2.735

Find the measured Screen: item LESILYESSVV [TRPV4_Y91_T89I] , target or system c-Src kinase domain (Homo sapiens).
-0.6958

Record lookup: for c-Src kinase domain (Homo sapiens), what Screen belongs to ADDSFYTVRSA [ZAP70_Y493_A495V_YF] ?
1.093
